- measuredOn: GST-tagged KRAS-G12D (2-169) (Homo sapiens, UniProt P01116, G12D)
- Sequence (P01116 2-169 isoform P01116-2 G12D): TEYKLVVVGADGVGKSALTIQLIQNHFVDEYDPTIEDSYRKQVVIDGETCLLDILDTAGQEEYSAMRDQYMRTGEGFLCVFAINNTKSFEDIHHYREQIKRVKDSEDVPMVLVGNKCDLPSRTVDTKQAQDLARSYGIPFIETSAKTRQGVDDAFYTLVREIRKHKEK
- protocolDescription: Nucleotide exchange assay (NEA), SOS-mediated, HTRF, KRAS G12D
- Assay type: biochemical
- runConditions: Table 2; IC50 extracted at 30 min; 20 nM SOScat; read-out: NEA-G12D (uM) IC50
readoutType: IC50

compound | IC50
CN(CC1(C#N)CC1)c1nc(OC[C@@]23CCCN2C[C@H](F)C3)nc(N2CCC3(CCc4sc(N)c(C#N)c43)C2)n1 (stereo partly shown) | 1 to 20 µM
N#Cc1c(N)sc2c1C1(CC2)CN(c2nc(OC[C@@]34CCCN3C[C@H](F)C4)nc(N3CCCC(C#N)C3)n2)C1 (stereo partly shown) | 0.01 to 0.1 µM
N#Cc1c(N)sc2c1C1(CC2)CCN(c2nc(OCC3(CN4CCOCC4)CC3)nc(N3C[C@H]4CC[C@@H](C3)N4)n2)C1 (stereo partly shown) | < 0.01 µM
N#Cc1c(N)sc2c1C1(CCC2)CN(c2nc(OCC3(CN4CCOCC4)CC3)nc(N3C[C@H]4CC[C@@H](C3)N4)n2)C1 | < 0.01 µM
C[C@]1(O)CN(c2nc(OC[C@@]34CCCN3C[C@H](F)C4)nc(N3CC4(CCc5sc(N)c(C#N)c54)C3)n2)CC[C@H]1O | 0.01 to 0.1 µM
N#Cc1c(N)sc2c1C1(CC2)CN(c2nc(OC[C@@]34CCCN3C[C@H](F)C4)nc(N3CCCC(C#N)CC3)n2)C1 (stereo partly shown) | 0.01 to 0.1 µM
N#Cc1c(N)sc2c1C1(CC2)CN(c2nc(OCC3(C#N)CC3)nc(OC[C@@]34CCCN3C[C@H](F)C4)n2)C1 | 0.01 to 0.1 µM
C[C@@]1(O)CCCN(c2nc(OC[C@@]34CCCN3C[C@H](F)C4)nc(N3CC4(CCc5sc(N)c(C#N)c54)C3)n2)C1 | < 0.01 µM

Go through the items and report each one's IC50.
1. N#Cc1c(N)sc2c1C1(CC2)CN(c2nc(OCC3(CN4CCOCC4)CC3)nc(N3CCCC4(C3)NC(=O)NC4=O)n2)C1 (stereo not shown)
2. N#Cc1c(N)sc2c1C1(CC2)CN(c2nc(OCC3(CN4CCOCC4)CC3)nc(N3C[C@H]4CC[C@@H](C3)N4)n2)C1
3. N#Cc1c(N)sc2c1C1(CC2)CN(c2nc(OC[C@@]34CCCN3C[C@H](F)C4)nc(N3CC[C@@H](O)[C@@H](O)C3)n2)C1 (racemic)
4. CC1(C#N)CCCN(c2nc(OC[C@@]34CCCN3C[C@H](F)C4)nc(N3CC4(CCc5sc(N)c(C#N)c54)C3)n2)C1 (stereo partly shown)

A:
["< 0.01 µM", "< 0.01 µM", "0.01 to 0.1 µM", "0.01 to 0.1 µM"]

###

- measuredOn: GST-tagged KRAS-G12D (2-169) (Homo sapiens, UniProt P01116, G12D)
- protocolDescription: Nucleotide exchange assay (NEA), SOS-mediated, HTRF, KRAS G12D
- Assay type: biochemical
- runConditions: Table 4; IC50 extracted at 30 min; 20 nM SOScat; read-out: NEA G12D IC50
pIC50: −log10 of the molar value.
readoutType: pIC50

Solved entries (count: 3):
molecule | observedValue
CC(c1ccn(C)n1)N(C)c1nc(OC[C@@]23CCCN2C[C@H](F)C3)nc(N2CC3(CCc4sc(N)c(C#N)c43)C2)n1 (stereo partly shown) [Compound 119] | 4.70 to 6.00
CCN(c1nc(OCC2CCC3C(=O)N(C)CCN23)nc(N2CC3(C2)SCc2sc(N)c(C#N)c23)n1)C(C)c1cccnc1N (mixture of isomers) [Compound 210] | > 8.00
CCN(c1nc(OC[C@@H]2CCCN2C)nc(N2CC3(C2)SCc2sc(N)c(C#N)c23)n1)[C@H](C)c1cccnc1N [Compound 207] | > 8.00

For every item in the list below, what is its measured pIC50?
1. C[C@]1(CO)C[C@@H](O)CN1c1nc(OC[C@@]23CCCN2C[C@H](F)C3)nc(N2CC3(CCc4sc(N)c(C#N)c43)C2)n1 [Compound 58]
2. N#Cc1c(N)sc2c1C1(CC2)CN(c2nc(OC[C@@]34CCCN3C[C@H](F)C4)nc(OC3CCOC3)n2)C1 (stereo partly shown) [Compound 78]
3. N#Cc1c(N)sc2c1C1(CC2)CN(c2nc(OCC34CCCN3CC(F)C4)nc(N3CC4CCC(C3)N4)n2)C1 (stereo not shown) [Compound 1]
4. N#Cc1c(N)sc2c1C1(CN(c3nc(OC[C@@]45CCCN4C[C@H](F)C5)nc(N(CC(N)=O)C4(C#N)CC4)n3)C1)SC2 [Compound 266]
5. CC(c1ccc(P(C)(C)=O)cc1N)N(C)c1nc(OC[C@@]23CCCN2C[C@H](F)C3)nc(N2CC3(C2)SCc2sc(N)c(C#N)c23)n1 (stereo partly shown) [Compound 231]
6. C[C@@]1(O)CCCN(c2nc(OCC3(CN4CCOCC4)CC3)nc(N3CCC4(CCCc5sc(N)c(C#N)c54)C3)n2)C1 (stereo partly shown) [Compound 64]
7. N#Cc1c(N)sc2c1C1(CCC2)CN(c2nc(OCC3(CN4CCOCC4)CC3)nc(N3C[C@H]4CC[C@@H](C3)N4)n2)C1 [Compound 3]
8. CC(c1cccnc1N)N(CCO)c1nc(OC[C@@]23CCCN2C[C@H](F)C3)nc(N2CC3(CCc4sc(N)c(C#N)c43)C2)n1 (single isomer, unassigned) [Compound 122B]

A:
1. 7.00 to 8.00
2. 4.70 to 6.00
3. > 8.00
4. > 8.00
5. ≤ 4.70
6. 4.70 to 6.00
7. > 8.00
8. > 8.00

###

Assignment: determine reported pIC50 for the given molecules.
- measuredOn: GST-tagged KRAS-G12D (2-169) (Homo sapiens, UniProt P01116, G12D)
- protocolDescription: Nucleotide exchange assay (NEA), SOS-mediated, HTRF, KRAS G12D
- Type: biochemical
- runConditions: Table 4; IC50 extracted at 30 min; 20 nM SOScat; read-out: NEA G12D IC50
pIC50: −log10 of the molar value.

molecule | pIC50
CCN(c1nc(OCC23CCCN2CCC3)nc(N2CC3(C2)SCc2sc(N)c(C#N)c23)n1)[C@H](C)c1cccnc1N | > 8.00
CCN(c1nc(OC[C@@H]2CC[C@H]3CN(C)CCN23)nc(N2CC3(C2)SCc2sc(N)c(C#N)c23)n1)[C@H](C)c1cccnc1N (mixture of isomers) | > 8.00
CN(Cc1ccn[nH]1)c1nc(OC[C@@]23CCCN2C[C@H](F)C3)nc(N2CC3(CCc4sc(N)c(C#N)c43)C2)n1 (racemic) | 4.70 to 6.00
CCN(c1nc(OCC2(COC)CCCN2)nc(N2CC3(C2)SCc2sc(N)c(C#N)c23)n1)[C@H](C)c1cccnc1N (stereo partly drawn) | > 8.00
CC1(C#N)CCCN(c2nc(OCC3(CN4CCOCC4)CC3)nc(N3CC4(CCc5sc(N)c(C#N)c54)C3)n2)C1 (stereo not drawn) | 6.00 to 7.00

Next, consider the following molecule.
Q: Specify measured pIC50 for CN(Cc1c(F)ccnc1N)c1nc(OC[C@@]23CCCN2C[C@H](F)C3)nc(N2CC3(C2)SCc2sc(N)c(C#N)c23)n1 .
A: 7.00 to 8.00

###

- measuredOn: GST-tagged KRAS-G12V (2-169) (Homo sapiens, UniProt P01116, G12V)
- Sequence (P01116 2-169 isoform P01116-2 G12V): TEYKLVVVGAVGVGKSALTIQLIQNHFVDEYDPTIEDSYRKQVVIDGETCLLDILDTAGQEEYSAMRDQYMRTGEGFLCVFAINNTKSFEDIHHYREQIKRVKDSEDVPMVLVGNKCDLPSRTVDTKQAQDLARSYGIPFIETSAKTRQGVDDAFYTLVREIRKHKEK
- protocolDescription: Nucleotide exchange assay (NEA), SOS-mediated, HTRF, KRAS G12V
- runConditions: Table 4; IC50 extracted at 90 min; 80 nM SOS
readoutType: IC50

compound | measuredOn | IC50
CC(c1ccn[nH]1)N(C)c1nc(OC[C@@]23CCCN2C[C@H](F)C3)nc(N2CC3(CCc4sc(N)c(C#N)c43)C2)n1 (stereo partly shown) | GST-tagged KRAS-G12V (2-169) (Homo sapiens, UniProt P01116, G12V) | < 10 nM
N#Cc1c(N)sc2c1C1(CN(c3nc(OC[C@@]45CCCN4C[C@H](F)C5)nc(N4C5CCC4CC(=O)NC5)n3)C1)SC2 (stereo partly shown) | GST-tagged KRAS-G12V (2-169) (Homo sapiens, UniProt P01116, G12V) | 100 to 1000 nM
N#Cc1c(N)sc2c1C1(CC2)CN(c2nc(OC[C@@]34CCCN3C[C@H](F)C4)nc(N(CCO)Cc3ccc[nH]c3=O)n2)C1 | GST-tagged KRAS-G12V (2-169) (Homo sapiens, UniProt P01116, G12V) | 100 to 1000 nM

Give IC50 for each of the items listed below.
1. CC(c1c[nH]nc1Cl)N(C)c1nc(OC[C@@]23CCCN2C[C@H](F)C3)nc(N2CC3(CCc4sc(N)c(C#N)c43)C2)n1 (stereo partly shown)
2. C[C@H](c1cccnc1N)N(C)c1nc(OC[C@@]23CCCN2C[C@H](F)C3)nc(N2CC3(CCCc4sc(N)c(C#N)c43)C2)n1
3. CCN(c1nc(OC[C@@]23CCCN2C[C@H](F)C3)nc(N2CC3(C2)c2c(sc(N)c2C#N)C2CC23)n1)[C@H](C)c1cccnc1N (stereo partly shown)
4. CC(c1cccnc1N)N(CCO)c1nc(OC[C@@]23CCCN2C[C@H](F)C3)nc(N2CC3(CCc4sc(N)c(C#N)c43)C2)n1 (single isomer, unassigned) [Compound 122B]

A:
1: 100 to 1000 nM; 2: < 10 nM; 3: < 10 nM; 4: < 10 nM

Dear reader, for each entry below, please note its IC50.
1. N#Cc1c(N)sc2c1C1(CC2)CN(c2nc(OC[C@@]34CCCN3C[C@H](F)C4)nc(N3CCCC4(CC(=O)N4)C3)n2)C1 (stereo partly shown)
2. CC(=O)CC(=O)N1[C@@H]2CC[C@H]1CN(c1nc(OC[C@@]34CCCN3C[C@H](F)C4)nc(N3CC4(C3)SCc3sc(N)c(C#N)c34)n1)C2
3. CN(c1nc(OC[C@@]23CCCN2C[C@H](F)C3)nc(N2CC3(CCc4sc(N)c(C#N)c43)C2)n1)[C@@H]1COC[C@H]1O (racemic)
4. CC(c1ccn(C)n1)N(C)c1nc(OC[C@@]23CCCN2C[C@H](F)C3)nc(N2CC3(CCc4sc(N)c(C#N)c43)C2)n1 (stereo partly shown)
5. N#Cc1c(N)sc2c1C1(CC2)CN(c2nc(OCC3(CN4CCOCC4)CC3)nc(N3CCCC(O)(C(F)F)C3)n2)C1 (stereo not shown)

A:
< 10 nM
100 to 1000 nM
100 to 1000 nM
1000 to 20000 nM
10 to 100 nM

Quick request: IC50 for each listed item, please.
1. CC(c1cccnc1N)N(C)c1nc(OC[C@@]23CCCN2C[C@H](F)C3)nc(N2CC3(C2)SCc2sc(N)c(C#N)c23)n1 (single isomer, unassigned) [Compound 120A]
2. N#Cc1c(N)sc2c1C1(CC2)CN(c2nc(OC[C@@]34CCCN3C[C@H](F)C4)nc(N3CCCC(O)(C(F)F)C3)n2)C1 (stereo partly shown)
3. CC1(C#N)CCCN(c2nc(OC[C@@]34CCCN3C[C@H](F)C4)nc(N3CC4(CCc5sc(N)c(C#N)c54)C3)n2)C1 (stereo partly shown)
4. N#Cc1c(N)sc2c1C1(CC2)CN(c2nc(OC[C@@]34CCCN3C[C@H](F)C4)nc(O[C@@H]3COC[C@@H]3O)n2)C1 (racemic)

A:
< 10 nM
10 to 100 nM
10 to 100 nM
100 to 1000 nM
